assay: protein stability index of a GFP-peptide fusion (GPS, HEK-293T) (PSI 1-6); higher = more stable; conditions: treatment: DMSO; c terminus: a fixed tail appended;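 further: 24-mer peptide tiles fused after GFP, lentivirally expressed, FACS-sorted into six equal bins by GFP/DsRed ratio, decoded by Illumina sequencing, PSI is the read-weighted mean bin number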
measure: protein stability index
No unit in the answer, please; the number alone is enough.

{"seq.string": "EQQRCLLLARLRELEQQIWKERDE [TRIM15]", "numeric.value": 3.03}
{"seq.string": "QGMEVDLVTGLAIEEACYAQTIPT [AUH]", "numeric.value": 3.73}
{"seq.string": "LAPNFRWAIPNRQINDGMGGDGDD [BEX3]", "numeric.value": 4.77}

[in] Tell me its protein stability index given GGGGQGDGGSSLASGSTQRQPPPP [FBXO28] as the entry.
[out] 5.38

[in] Tell me its protein stability index given DHSSQSEEEVVEGEKEVEALKKSA [BNIP3L] as the entry.
[out] 5.5

[in] Tell me its protein stability index given KAFWKEDNALWERDRNLLQEDKAL [CCDC70] as the entry.
[out] 4.16

[in] Tell me its protein stability index given TQLTQNAVSCPYLPSNLLKKFRSS [KCNA4] as the entry.
[out] 3.32

[in] Tell me its protein stability index given ACGGHVELAALLIERGASLEEVND [ANKRD17] as the entry.
[out] 3.91

[in] Tell me its protein stability index given IEIGCEDKTLAFKMNGYISNANYS [MLH1] as the entry.
[out] 2.34

====

Each entry below carries its recorded protein stability index.
experiment: protein stability index of a GFP-peptide fusion (GPS, HEK-293T) (PSI 1-6); higher = more stable; settings: treatment: DMSO; c terminus: a fixed tail appended

Study these solved cases before continuing.
{"seq.string": "VLEENGEKNQVQLGKLEATIKSLS [SASS6]", "result": 3.98}
{"seq.string": "SWEGLAVLDSLLLTLLPQLQEAWQ [RSAD1]", "result": 3.27}
{"seq.string": "SMQEDEQSGRDLQQYQSQAKQLFR [SEC22B]", "result": 4.22}
{"seq.string": "APEFIKVRENLRRIATLTSEEREL [FAM107A]", "result": 4.48}
{"seq.string": "KPGPQDTVERPFYDLWASDNPLDR [NOP53]", "result": 4.45}
{"seq.string": "IVNQWSEKFSDEGDSDSALDSVSP [DLC1]", "result": 5.32}

[in] Tell me its protein stability index given VVPPTPPVVKKKGVKRKADTTTPT [BRD3] as the entry.
[out] 4.9

[in] Tell me its protein stability index given GDLQETTVVTGLGPDTQDLEGQSP [PBXIP1] as the entry.
[out] 5.62

[in] Tell me its protein stability index given CSGTELSLAHCRHDGEDVACPQGG [LOXL2] as the entry.
[out] 4.78

[in] Tell me its protein stability index given KCCGMRNTDVSMENMVTVGFFSCM [KCNK9] as the entry.
[out] 2.59

[in] Tell me its protein stability index given AIHYCASTSEESWTDSEVDSSCSG [SPDEF] as the entry.
[out] 5.28

[in] Tell me its protein stability index given AKKGRRNQSVEPKKEEPEPETEAV [ZMYND11] as the entry.
[out] 5.53

[in] Tell me its protein stability index given MQEKNPVHVIGVEEPSVGASMLFD [ZNF8] as the entry.
[out] 4.41

Attribution: the supplement of paper PMC10567573
